TARGET: 5HT₂-Rezeptor (Homo sapiens)
Sequence (P28223 whole entry): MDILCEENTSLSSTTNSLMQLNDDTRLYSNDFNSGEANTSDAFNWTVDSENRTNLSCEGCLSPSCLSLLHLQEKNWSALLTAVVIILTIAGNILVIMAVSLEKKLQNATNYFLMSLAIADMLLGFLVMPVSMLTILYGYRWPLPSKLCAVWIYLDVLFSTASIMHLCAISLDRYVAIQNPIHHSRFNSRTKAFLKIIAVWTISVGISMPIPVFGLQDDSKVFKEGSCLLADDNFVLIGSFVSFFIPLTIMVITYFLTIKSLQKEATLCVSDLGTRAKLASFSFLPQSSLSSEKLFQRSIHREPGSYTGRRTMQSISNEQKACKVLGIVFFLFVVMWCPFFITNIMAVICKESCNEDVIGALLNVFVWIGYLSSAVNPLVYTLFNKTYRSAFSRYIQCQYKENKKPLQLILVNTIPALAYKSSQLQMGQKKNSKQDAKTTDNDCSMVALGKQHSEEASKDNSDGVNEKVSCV
ASSAY PROCEDURE: 3H-Metanserin binding test (test method d)
CONDITION NOTES: Testmethode d; concentration displacing 50% of receptor-bound ligand (3H-Metanserin); read-out: IC₅₀
RESULT TYPE: IC50

INSERT INTO measurements (compound, value_observed) VALUES
  ('COc1c2n(c3cccc(C(F)(F)F)c13)CCNC2', '374 nM'),
  ('Cc1nc2ccccn2c(=O)c1CCN1CCC(C(=O)c2ccc(F)cc2)CC1 [Pirenperon, reference compound]', '2.9 nM'),
  ('COc1c2n(c3ccc(Br)cc13)CCNC2', '2810 nM'),
  ('COc1c2n(c3c(Br)cccc13)CCNC2', '3030 nM'),
  ('COc1c2n(c3cc(Cl)cc(Cl)c13)CCNC2', '5850 nM'),
  ('COc1c2n(c3ccc(F)c(Cl)c13)CCNC2', '1030 nM'),
  ('COc1c2n(c3cccc(C)c13)CCNC2', '2270 nM'),
  ('Fc1ccc2c(cc3n2CCNC3)c1Cl', '902 nM'),
  ('COc1c2n(c3ccc(Cl)cc13)CCNC2', '3140 nM'),
  ('COc1c2n(c3cc(Cl)ccc13)CCNC2', '9460 nM');

###

TARGET: 5HT1C-Rezeptor (Homo sapiens)
ASSAY PROCEDURE: 3H-Mesulergin binding test (test method c)
CONDITION NOTES: Testmethode c; concentration displacing 50% of receptor-bound ligand (3H-Mesulergin); read-out: IC₅₀
Doc: threshold 90 nM (exclusive). Items with IC50 beneath it return class 1; others return class 0.

INSERT INTO assay_data (compound, target, class_assignment) VALUES
  ('COc1ccccc1N1CCN(CCCCN2C(=O)c3ccccc3C2=O)CC1 [NAN-190, reference compound]', '5HT1C-Rezeptor (Homo sapiens)', 'class 0'),
  ('COc1c2n(c3cccc(C)c13)CCNC2 [Substanz I]', '5HT1C-Rezeptor (Homo sapiens)', 'class 0'),
  ('COc1c2n(c3cccc(C(F)(F)F)c13)CCNC2 [Substanz J]', '5HT1C-Rezeptor (Homo sapiens)', 'class 1'),
  ('COc1c2n(c3cc(Cl)cc(Cl)c13)CCNC2 [Substanz L]', '5HT1C-Rezeptor (Homo sapiens)', 'class 0'),
  ('Cc1nc2sccn2c(=O)c1CCN1CCC(=C(c2ccc(F)cc2)c2ccc(F)cc2)CC1 [Ritanserin, reference compound]', '5HT1C-Rezeptor (Homo sapiens)', 'class 1'),
  ('COc1c2n(c3cc(Cl)ccc13)CCNC2 [Substanz F]', '5HT1C-Rezeptor (Homo sapiens)', 'class 0'),
  ('COc1c2n(c3ccc(Br)cc13)CCNC2 [Substanz G]', '5HT1C-Rezeptor (Homo sapiens)', 'class 0'),
  ('Fc1ccc2c(cc3n2CCNC3)c1Cl [Substanz N]', '5HT1C-Rezeptor (Homo sapiens)', 'class 1'),
  ('COc1c2n(c3c(Br)cccc13)CCNC2 [Substanz M]', '5HT1C-Rezeptor (Homo sapiens)', 'class 0');

###

TARGET: 5HT1A-Rezeptor (Homo sapiens, UniProt P08908)
Sequence (P08908 whole entry): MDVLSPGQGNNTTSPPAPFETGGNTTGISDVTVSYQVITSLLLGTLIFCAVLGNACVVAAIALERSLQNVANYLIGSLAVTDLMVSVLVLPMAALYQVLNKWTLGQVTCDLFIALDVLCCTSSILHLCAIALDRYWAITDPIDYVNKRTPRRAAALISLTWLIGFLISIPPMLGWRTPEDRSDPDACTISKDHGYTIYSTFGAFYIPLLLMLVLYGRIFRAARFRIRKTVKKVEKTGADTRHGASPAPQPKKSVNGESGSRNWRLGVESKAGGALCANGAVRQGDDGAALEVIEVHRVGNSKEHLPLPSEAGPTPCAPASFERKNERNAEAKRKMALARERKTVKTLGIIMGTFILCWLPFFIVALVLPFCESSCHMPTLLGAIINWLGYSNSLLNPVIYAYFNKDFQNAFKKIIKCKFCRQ
ASSAY PROCEDURE: 3H-8-OH-DPAT binding test (test method a)
Doc: threshold 400 nM (exclusive). Items with IC50 beneath it return 1; others return 0.

INSERT INTO results (molecule, class_assignment) VALUES
  ('COc1ccc2[nH]cc(C3=CCNCC3)c2c1 [RU 24969, reference compound]', 1),
  ('Clc1cccc(N2CCNCC2)c1 [mCPP, reference compound]', 1),
  ('COc1c2n(c3cc(Cl)cc(Cl)c13)CCNC2', 0),
  ('COc1c2n(c3ccc(Br)cc13)CCNC2', 1),
  ('COc1c2n(c3ccc(F)c(Cl)c13)CCNC2', 1),
  ('COc1c2n(c3c(Br)cccc13)CCNC2', 0),
  ('COc1c2n(c3ccc(F)cc13)CCNC2', 0),
  ('COc1c2n(c3cc(Cl)ccc13)CCNC2', 0),
  ('Cc1nc2ccccn2c(=O)c1CCN1CCC(C(=O)c2ccc(F)cc2)CC1 [Pirenperon, reference compound]', 0),
  ('COc1c2n(c3cccc(C(F)(F)F)c13)CCNC2', 0),
  ('Fc1ccc2c(cc3n2CCNC3)c1Cl', 0),
  ('COc1c2n(c3cccc(F)c13)CCNC2', 0),
  ('COc1c2n(c3ccc(Cl)cc13)CCNC2', 0),
  ('O=c1ccc2[nH]cc(C3=CCNCC3)c2[nH]1 [CP 93129, reference compound]', 0);

###

As shown below, each of these molecules has a reported pIC50 value.
TARGET: 5HT1C-Rezeptor (Homo sapiens, UniProt P28335)
Sequence (P28335 33-458): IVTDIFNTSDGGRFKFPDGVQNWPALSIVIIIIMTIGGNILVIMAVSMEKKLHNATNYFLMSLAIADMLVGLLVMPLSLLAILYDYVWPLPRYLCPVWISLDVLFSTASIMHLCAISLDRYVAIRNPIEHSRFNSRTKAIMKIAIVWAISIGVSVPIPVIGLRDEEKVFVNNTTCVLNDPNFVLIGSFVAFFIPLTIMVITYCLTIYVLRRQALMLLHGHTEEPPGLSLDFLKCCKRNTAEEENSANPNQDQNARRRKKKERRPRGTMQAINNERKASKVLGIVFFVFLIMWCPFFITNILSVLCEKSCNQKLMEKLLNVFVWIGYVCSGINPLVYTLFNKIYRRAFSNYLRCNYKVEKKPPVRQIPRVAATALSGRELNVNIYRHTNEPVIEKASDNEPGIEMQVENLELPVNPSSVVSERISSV
ASSAY PROCEDURE: 3H-Mesulergin binding test (test method c)
pIC50: −log10 of the molar value.
RESULT TYPE: pIC50

INSERT INTO measurements (molecule, value_observed) VALUES
  ('COc1c2n(c3cccc(F)c13)CCNC2 [Substanz C]', 6.66),
  ('COc1c2n(c3ccc(F)cc13)CCNC2 [Substanz B]', 6.44),
  ('Cc1nc2ccccn2c(=O)c1CCN1CCC(C(=O)c2ccc(F)cc2)CC1 [Pirenperon, reference compound]', 7.43),
  ('COc1c2n(c3ccc(Cl)cc13)CCNC2 [Substanz D]', 6.71),
  ('COc1c2n(c3cccc(Br)c13)CCNC2 [Substanz E]', 7.08);

###

TARGET: UniProt P28223
ASSAY PROCEDURE: 3H-Metanserin binding test (test method d)
As shown below, each of these molecules has a reported IC50 value.
RESULT TYPE: IC50 (µM)

INSERT INTO assay_data (molecule, target, value_observed) VALUES
  ('COc1ccccc1N1CCN(CCCCN2C(=O)c3ccccc3C2=O)CC1 [NAN-190, reference compound]', 'UniProt P28223', 0.581),
  ('COc1c2n(c3ccc(F)cc13)CCNC2', 'UniProt P28223', 9.39),
  ('COc1c2n(c3cccc(F)c13)CCNC2', 'UniProt P28223', 5.17),
  ('O=c1ccc2[nH]cc(C3=CCNCC3)c2[nH]1 [CP 93129, reference compound]', 'UniProt P28223', 29.2),
  ('COc1c2n(c3cccc(Br)c13)CCNC2', 'UniProt P28223', 1.02);

From: patent EP0572863A1
